Hey, just so you know, these numbers are from the supplement of paper PMC5579334.

tested on: HS-PSS; assay: drug sensitivity score (DSS, CellTiter-Glo viability, 72 h) (DSS (dimensionless)); higher = more sensitive; extreme values may be limits of the assay
Readout name: drug sensitivity score
Answer using only a numeral; do not append any unit.

| Compound | drug sensitivity score |
| --- | --- |
| O=C(O)CNC(=O)c1c(O)c2ccccc2n(Cc2ccccc2)c1=O [IOX-2] (max concentration tested 50000 nM) | 5.08 |
| CC[C@H](Nc1ncnc2[nH]cnc12)c1nc2cccc(F)c2c(=O)n1-c1ccccc1 [Idelalisib] (max concentration tested 10000 nM) | 0 |

Need drug sensitivity score of C=CCN(/C=C1/C(=O)O[C@H](COC)[C@@]2(C)C1=C(O)C(=O)C1=C2[C@H](OC(C)=O)C[C@]2(C)C(=O)CC[C@@H]12)CC=C [Sonolisib] (max concentration tested 10000 nM) , thanks.
0

Need drug sensitivity score of C[C@]12O[C@H](C[C@]1(O)CO)n1c3ccccc3c3c4c(c5c6ccccc6n2c5c31)CNC4=O [Lestaurtinib] (max concentration tested 1000 nM) , thanks.
5.63

Need drug sensitivity score of CC[C@@H]1C(=O)OC[C@@H]1Cc1cncn1C [Pilocarpine] (max concentration tested 40000 nM) , thanks.
0

Need drug sensitivity score of COc1ccc(-c2cc3c(C)nc(N)nc3n([C@H]3CC[C@H](OCCO)CC3)c2=O)cn1 (max concentration tested 10000 nM) , thanks.
11.7

Need drug sensitivity score of CNC(=O)c1ccc(-c2cnc3ncc(Cc4ccc5ncccc5c4)n3n2)cc1F [NVP-INC280] (max concentration tested 1000 nM) , thanks.
0

Need drug sensitivity score of COc1cccc2cc(-c3nc([C@H]4CC[C@H](C(=O)O)CC4)n4ncnc(N)c34)[nH]c12 [OSI-027] (max concentration tested 10000 nM) , thanks.
0.84

Need drug sensitivity score of Nc1ncn([C@H]2C[C@H](O)[C@@H](CO)O2)c(=O)n1 [Decitabine] (max concentration tested 10000 nM) , thanks.
0

Need drug sensitivity score of COc1cc(Nc2ncc3c(n2)-c2ccc(Cl)cc2C(c2c(F)cccc2OC)=NC3)ccc1C(=O)O [Alisertib] (max concentration tested 10000 nM) , thanks.
3.93

Need drug sensitivity score of Cn1c(CCCC(=O)O)nc2cc(N(CCCl)CCCl)ccc21 [Bendamustine] (max concentration tested 10000 nM) , thanks.
0

Need drug sensitivity score of Cc1nc(-c2cn3c(n2)-c2ccc(-c4cnn(C(C)(C)C(N)=O)c4)cc2OCC3)n(C(C)C)n1 [Taselisib] (max concentration tested 1000 nM) , thanks.
0.7
